Test: In vitro cytotoxicity assay (MTT cell viability) in HepG2 cells
Format: cell-based, human
Conditions: human

{"molecule": "Cc1cc(NC(=O)c2c(C)c(C(=O)C(=O)NC(C)(C)C(N)=O)n(C)c2C)ccc1F", "CC50 at 7 days": "> 30 µM"}
{"molecule": "Cc1cc(NC(=O)c2c(C)c(C(=O)C(=O)NC3(C)CCN(S(C)(=O)=O)CC3)n(C)c2C)ccc1F", "CC50 at 7 days": "> 30 µM"}
{"molecule": "Cc1cc(NC(=O)c2c(C)c(C(=O)C(=O)N[C@H](C(N)=O)C(C)(C)C)n(C)c2C)ccc1F", "CC50 at 7 days": "> 30 µM"}
{"molecule": "Cc1cc(NC(=O)c2c(C)c(C(=O)C(=O)N[C@H]3COC[C@@H]3O)n(CCF)c2C)ccc1F", "CC50 at 7 days": "> 30 µM"}
{"molecule": "Cc1cc(NC(=O)c2c(C)c(C(=O)C(=O)NC3(C(N)=O)C4CC5CC(C4)CC3C5)n(C)c2C)ccc1F (stereo not shown)", "CC50 at 7 days": "0.5 to 4.99 µM"}
{"molecule": "Cc1cc(NC(=O)c2c(C)c(C(=O)C(=O)NC(C)(C)c3noc(CN(C)C)n3)n(C)c2C)ccc1F", "CC50 at 7 days": "> 30 µM"}
{"molecule": "Cc1c(C(=O)Nc2ccc(F)c(C#N)c2)c2n(c1C(=O)C(=O)NC(C)(C)C)CCCC2", "CC50 at 7 days": "5 to 30 µM"}

###

Assay: In vitro cytotoxicity assay (MTT cell viability) in HepG2 cells
Assay type: cell-based, human
Settings: human
// reported CC50 at 7 days for each item listed
quantity-name: CC50 at 7 days

{"compound": "Cc1c(C(=O)Nc2ccc(F)c(F)c2)c(C)n(C)c1C(=O)C(=O)NC1CCC(F)(F)CC1", "quantity-name": "CC50 at 7 days", "result": "> 30 µM"}
{"compound": "Cc1cc(NC(=O)c2c(C)c(C(=O)C(=O)NC34CC5CC(CC3C5)C4)n(C)c2C)cnc1F", "quantity-name": "CC50 at 7 days", "result": "> 30 µM"}
{"compound": "Cc1cc(NC(=O)c2c(C)c(C(=O)C(=O)Nc3cc(F)[nH]c(=O)c3)n(C)c2C)ccc1F", "quantity-name": "CC50 at 7 days", "result": "5 to 30 µM"}
{"compound": "Cc1c(C(=O)Nc2ccnc(F)c2)c(C)n(C)c1C(=O)C(=O)NC(C)(C)CO", "quantity-name": "CC50 at 7 days", "result": "> 30 µM"}
{"compound": "Cc1c(C(=O)Nc2ccc(F)c(F)c2)c2n(c1C(=O)C(=O)NCC(C)(C)CO)CCCC2", "quantity-name": "CC50 at 7 days", "result": "5 to 30 µM"}
{"compound": "Cc1cc(NC(=O)c2c(C)c(C(=O)C(=O)NC(C)(C)C(=O)N3CCC(O)CC3)n(C)c2C)ccc1F", "quantity-name": "CC50 at 7 days", "result": "> 30 µM"}
{"compound": "Cc1cc(NC(=O)c2c(C)c(C(=O)C(=O)NC3(C(F)(F)F)CCOCC3)n(CCF)c2C)ccc1F", "quantity-name": "CC50 at 7 days", "result": "> 30 µM"}
{"compound": "Cc1c(C(=O)Nc2ccc(F)c(Cl)c2)c2n(c1C(=O)C(=O)NCC(C)(C)CO)CCCC2", "quantity-name": "CC50 at 7 days", "result": "> 30 µM"}
{"compound": "Cc1c(C(=O)Nc2ccc(F)c(F)c2)c2n(c1C(=O)C(=O)NC1(CO)CCC1)CCCC2", "quantity-name": "CC50 at 7 days", "result": "5 to 30 µM"}
{"compound": "Cc1nc(C2(NC(=O)C(=O)c3c(C)c(C(=O)Nc4ccc(F)c(C)c4)c(C)n3C)CCCCC2)no1", "quantity-name": "CC50 at 7 days", "result": "> 30 µM"}
{"compound": "Cc1cc(NC(=O)c2c(C)c(C(=O)C(=O)N[C@H](C)[C@@H](C)O)n(C)c2C)ccc1F", "quantity-name": "CC50 at 7 days", "result": "> 30 µM"}
{"compound": "Cc1c(C(=O)Nc2ccc(F)c(F)c2)c2n(c1C(=O)C(=O)NC1(c3nn[nH]n3)CCCC1)CCCC2", "quantity-name": "CC50 at 7 days", "result": "> 30 µM"}
{"compound": "Cc1c(C(=O)Nc2ccnc(F)c2)c(C)n(C)c1C(=O)C(=O)N[C@H]1CCC[C@@H]1O", "quantity-name": "CC50 at 7 days", "result": "> 30 µM"}
{"compound": "Cc1cc(NC(=O)c2c(Cl)c(C(=O)C(=O)NC(C)(C)CO)n3c2CCCC3)ccc1F", "quantity-name": "CC50 at 7 days", "result": "> 30 µM"}
{"compound": "Cc1noc(C(C)NC(=O)C(=O)c2cc(C(=O)Nc3ccc(F)c(C)c3)c3n2CCCC3)n1 (stereo not drawn)", "quantity-name": "CC50 at 7 days", "result": "> 30 µM"}
{"compound": "COc1c(C(=O)Nc2ccc(F)c(F)c2)c(C)n(C)c1C(=O)C(=O)NC1(C(F)(F)F)CCC1", "quantity-name": "CC50 at 7 days", "result": "> 30 µM"}
{"compound": "Cc1cc(NC(=O)c2cc(C(=O)C(=O)NC(C)(C)C)n3c2CCC3)ccc1F", "quantity-name": "CC50 at 7 days", "result": "> 30 µM"}
{"compound": "Cc1cc(NC(=O)c2c(Cl)c(C(=O)C(=O)N[C@H]3COC[C@@H]3O)n3c2CCC3)ccc1F", "quantity-name": "CC50 at 7 days", "result": "> 30 µM"}
{"compound": "CC(=O)N1CCn2c(C(=O)C(=O)NC(C)(C)C)cc(C(=O)Nc3ccc(F)c(C)c3)c2C1", "quantity-name": "CC50 at 7 days", "result": "> 30 µM"}
{"compound": "Cc1cc(NC(=O)c2c(C)c(C(=O)C(=O)NC3CCCN(C)CC3)n(C)c2C)ccc1F (stereo not drawn)", "quantity-name": "CC50 at 7 days", "result": "> 30 µM"}
{"compound": "Cc1c(C(=O)Nc2ccnc(F)c2)c(C)n(C)c1C(=O)C(=O)N[C@H](C)C(F)(F)F", "quantity-name": "CC50 at 7 days", "result": "> 30 µM"}
{"compound": "Cc1cc(NC(=O)c2c(C)c(C(=O)C(=O)NC3(C(=O)N[C@]4(C)C[C@H](O)C4)CCOCC3)n(C)c2C)ccc1F", "quantity-name": "CC50 at 7 days", "result": "> 30 µM"}
{"compound": "COc1c(C(=O)Nc2ccc(F)c(F)c2)c(C)n(C)c1C(=O)C(=O)NC(C)(C)CO", "quantity-name": "CC50 at 7 days", "result": "> 30 µM"}
{"compound": "Cc1c(C(=O)Nc2ccc(F)c(F)c2)c(C)n(C)c1C(=O)C(=O)NC(C)(C)CO", "quantity-name": "CC50 at 7 days", "result": "> 30 µM"}
{"compound": "O=C(N[C@H]1COC[C@@H]1O)C(=O)c1c(Cl)c(C(=O)Nc2ccc(F)c(F)c2)c2n1CCCC2", "quantity-name": "CC50 at 7 days", "result": "5 to 30 µM"}
{"compound": "Cc1cc(NC(=O)c2c(C)c(C(=O)C(=O)N[C@@H]3CCC[C@@H](O)C3)n(C)c2C)ccc1F", "quantity-name": "CC50 at 7 days", "result": "> 30 µM"}
{"compound": "Cc1c(C(=O)Nc2ccnc(F)c2)c(C)n(C)c1C(=O)C(=O)NC(C)(C)C(F)(F)F", "quantity-name": "CC50 at 7 days", "result": "> 30 µM"}
{"compound": "Cc1cc(NC(=O)c2c(C)c(C(=O)C(=O)NCC(C)(C)C)n(C)c2C)ccc1F", "quantity-name": "CC50 at 7 days", "result": "5 to 30 µM"}
{"compound": "Cc1cc(NC(=O)c2c(C)c(C(=O)C(=O)N[C@@H](C)C(C)(C)C)n(C)c2C)ccc1F", "quantity-name": "CC50 at 7 days", "result": "5 to 30 µM"}
{"compound": "Cc1cc(NC(=O)c2c(C)c(C(=O)C(=O)N[C@H]3CC[C@H](CO)CC3)n(C)c2C)ccc1F", "quantity-name": "CC50 at 7 days", "result": "> 30 µM"}
